All figures here come from PubChem BioAssay (NCATS).

Test: Primary qHTS for inhibitors of nuclear receptor binding SET domain protein 2 (NSD2) in an isogenic RCH-ACV NSD2 p.E1099K mutant (9B) (AID 1645876); note: nearly all actives have a fitted effect of over 70% in size
Conditions: RCH-ACV (leukaemia line) NSD2 E1099K (9B) viability, CellTiter-Glo, 72 h; series mostly up to 44.9 µM
Records with an inconclusive call do not appear. Calls of active or inactive are those of the source. Calls come from the whole dose curve; as a rule, active = well fitted inhibition curve with a large enough effect; inconclusive = small, poorly fitted or top-dose-only effect; inactive = flat fitted curve, though single readings scatter.
Labels: true (1) (active), false (0) (inactive)

| COMPOUND | QUALITATIVE_LABEL |
| --- | --- |
| CCOC(=O)C(=O)CCCCCCl | false (0) |
| O=C1CC2(CCCC2)CC(=O)N1CCNCC1COc2ccccc2O1 (configuration not stated) | false (0) |
| NS(=O)(=O)c1ccc(N2CCCCS2(=O)=O)cc1 | false (0) |
| Cc1c(F)cc2c(=O)c(C(=O)O)cn3c2c1CCC3C (configuration not stated) | false (0) |
| O=C(COCCOCCOCC(=O)Nc1c(I)cc(I)c(C(=O)O)c1I)Nc1c(I)cc(I)c(C(=O)O)c1I | false (0) |
| Cc1ccc(-c2ccccc2C#N)cc1 | false (0) |
| CCN1C(=O)c2ccccc2C1Nc1ccc(OCCN2CCCCC2)cc1 (configuration not stated) | false (0) |
| CCCCCOc1ccccc1/C(=C\SC)n1ccnc1 | true (1) |
| Cc1cnc(NS(=O)(=O)c2ccc(N)cc2)nc1 | false (0) |
| CC(C)(C)C1CCC(CC2=C(O)c3ccccc3C(=O)C2=O)CC1 (configuration not stated) | true (1) |
| Cc1onc(-c2c(Cl)cccc2Cl)c1C(=O)Cl | false (0) |
| COc1ccc(-n2nc(CCC(=O)N(C)O)cc2-c2ccc(Cl)cc2)cc1 | true (1) |
| CCCCCN(CCCOC)C(=O)C(CCC(=O)O)NC(=O)c1ccc(Cl)c(Cl)c1 (configuration not stated) | false (0) |
| C/C=C(/C(=C/C)c1ccc(OC(C)=O)cc1)c1ccc(OC(C)=O)cc1 | true (1) |
| CCC(C(=O)NC(=O)NC(C)=O)c1ccccc1 (configuration not stated) | false (0) |
| CC(=O)Oc1ccc(C2(c3ccc(OC(C)=O)cc3)Oc3ccccc3NC2=O)cc1 | true (1) |
| C=C(C)C(=O)OCC(O)CO (configuration not stated) | false (0) |
| Cc1cc(O)c(C)c(C)c1O | false (0) |
| O=S(=O)(O)c1ccc2nc(-c3ccccc3)[nH]c2c1 | false (0) |
| CCCCCCn1c(=O)c2c(ncn2C)n(C)c1=O | false (0) |
| C/C(=N/NC(=O)c1ccncc1)C(=O)O | false (0) |
| CC(=O)Nc1c(I)c(NC(C)=O)c(I)c(C(=O)O)c1I | false (0) |
| CCOc1c(N2CCOCC2)cnn(C)c1=O | false (0) |
| COc1ccccc1N1CCN(CCN2C(=O)CC3(CCCC3)CC2=O)CC1 | false (0) |
| O=C(c1ccco1)N1CCNCC1 | false (0) |
| COC(=O)[C@H]1[C@H]2C[C@@H]3c4[nH]c5cc(OC)ccc5c4CCN3C[C@H]2C[C@@H](OC(=O)/C=C/c2ccc(O)c(OC)c2)[C@@H]1OC | true (1) |
| O=C(NN1CCCC1)NS(=O)(=O)c1ccc(Cl)cc1 | false (0) |
| Nc1ncnc2c1ncn2Cc1c(F)cccc1Cl | false (0) |
| CCCCCCCC(=O)[O-].CCCCCCCC(=O)[O-].[Zn+2] | false (0) |
| CCCCCCOC(=O)NC(=N)c1ccc(NCc2nc3cc(C(=O)N(CCC(=O)OCC)c4ccccn4)ccc3n2C)cc1 | true (1) |
| CCOC(=O)NNc1ccc(N(CC)CC(C)O)nn1 (configuration not stated) | false (0) |
| CC(C(=O)O)c1ccc(/C=C2\CCCCC2=O)cc1 (configuration not stated) | false (0) |
| Cc1cc(OCCOCC[N+](C)(C)Cc2ccccc2)ccc1C(C)(C)CC(C)(C)C | true (1) |
| CC(C)C(=O)Nc1cccc(C(F)(F)F)c1 | false (0) |
| Nc1cc(C(F)(F)F)ccc1S | true (1) |
| CCCCCCCCCCCCCC[N+](C)(C)C | true (1) |
| NC(=O)C1(N2CCCCC2)CCN(CCCN2c3ccccc3CCc3ccc(Cl)cc32)CC1 | true (1) |
| CCOC(=O)C(=O)c1csc(NC=O)n1 | false (0) |
| O=C(O)C(=O)Nc1cccc(-c2nn[nH]n2)c1 | false (0) |
| O=C(O)c1ccc(OCCN2CCCCC2)cc1 | false (0) |
| C[C@H](CN1CCCC1)C(=O)c1ccc(C(F)(F)F)cc1 | true (1) |
| O=C(Nc1ccc(Cl)cc1)Nc1ccc(Cl)c(C(F)(F)F)c1 | true (1) |
| CCOc1ccc(NS(=O)(=O)c2ccc(N)cc2)nn1 | false (0) |
| COC(=O)C1=C(C)NC(C)=C(C(=O)OCCc2ccc(N3CCN(C(c4ccccc4)c4ccccc4)CC3)cc2)C1c1cccc([N+](=O)[O-])c1 (configuration not stated) | false (0) |
| CC(=O)N(CC(O)CO)c1c(I)c(C(=O)NCCO)c(I)c(C(=O)NCC(O)CO)c1I (configuration not stated) | false (0) |
| CN1[C@@H]2CC[C@H]1CC(NC(=O)n1c(=O)[nH]c3ccccc31)C2 (some centres not stated) | false (0) |
| Cc1oc(=O)oc1COC(=O)[C@@H]1N2C(=O)[C@@H](NC(=O)[C@H](N)c3ccccc3)[C@H]2SC1(C)C | false (0) |

====

Test: qHTS of pediatric cancer cell lines to identify multiple opportunities for drug repurposing: Confirmatory screen for Saos-2 cells (AID 1347127); note: nearly all actives have a fitted effect of over 60% in size
Conditions: Saos-2 osteosarcoma cell viability; series mostly up to 45.9 µM
Inconclusive results are not listed. The source made the active and inactive calls. Calls follow the shape of the dose curve; as a rule, active = well fitted cell-killing curve with a large enough effect; inconclusive = small, poorly fitted or top-dose-only effect, or effect the other way; inactive = no such curve, though single readings can be large or run the other way.
Labels: yes = active, no = inactive

| COMPOUND | QUALITATIVE_LABEL |
| --- | --- |
| CO[C@@H]1[C@@H](OC)[C@H](C)[C@@](O)(CC(=O)O)O[C@H]1[C@H](C)[C@H]1O[C@@]2(CC[C@@](C)([C@H]3CC[C@@](C)([C@@H]4O[C@@H]([C@H]5O[C@](C)(O)[C@H](C)C[C@@H]5C)C[C@@H]4OC4C[C@H](OC)[C@@H](OC)[C@H](C)O4)O3)O2)C[C@H](O)[C@H]1C (some centres not stated) | yes |
| CC(=O)O[C@@H]1C(=O)O[C@@H]2[C@H]1OC(=O)[C@@H]2OC(C)=O | no |
| CC(C)(C)CC(=O)OCC(=O)[C@@]1(O)CC[C@H]2[C@@H]3CCC4=CC(=O)C=C[C@]4(C)[C@H]3[C@@H](O)C[C@@]21C | no |
| CCCC(=O)O[C@]1(C(=O)COC(=O)CC)CC[C@H]2[C@@H]3CCC4=CC(=O)CC[C@]4(C)[C@H]3[C@@H](O)C[C@@]21C | no |
| CN(C)CCN(Cc1ccsc1)c1ccccn1 | no |
| CCC1=C[C@@H]2CN(C1)Cc1c([nH]c3ccccc13)[C@@](C(=O)OC)(c1cc3c(cc1OC)N(C)[C@H]1[C@@](O)(C(=O)OC)[C@H](OC(C)=O)[C@]4(CC)C=CCN5CC[C@]31[C@@H]54)C2 | yes |
| CCN(CC)CC(=O)OCC(=O)[C@@]1(O)CC[C@H]2[C@@H]3CCC4=CC(=O)CC[C@]4(C)[C@H]3[C@@H](O)C[C@@]21C | no |
| CCC1(c2cnc[nH]2)Cc2ccccc2C1 | yes |
| CC(=O)[C@@]1(O)CC[C@H]2[C@@H]3C[C@H](C)C4=CC(=O)CC[C@]4(C)[C@H]3CC[C@@]21C | no |
| CC[C@@]1(O)C(=O)OCc2c1cc1n(c2=O)Cc2c-1nc1ccccc1c2/C=N/OC(C)(C)C | yes |
| C[C@]12CCC(=O)C=C1CC[C@@H]1[C@@H]2[C@@H](O)C[C@@]2(C)[C@H]1CC[C@]2(O)C(=O)COC(=O)CCC(=O)O | no |
| COc1c(C)c2c(c(O)c1C/C=C(\C)CCC(=O)OCCN1CCOCC1)C(=O)OC2 | no |

====

Test system: ATS189
Test: qHTS profiling for inhibitors of Plasmodium falciparum proliferation (AID 504749); note: potency is the fitted concentration of half-maximal effect; nearly all actives have a fitted effect of over 60% in size
Settings: P. falciparum in erythrocytes, SYBR Green DNA, 72 h; series mostly up to 28.7 µM
Records with an inconclusive call do not appear. Activity calls are given as the source filed them. Calls follow the shape of the dose curve; as a rule, active = well fitted inhibition curve with a large enough effect; inconclusive = small, poorly fitted or top-dose-only effect; inactive = flat fitted curve, though single readings scatter.
Reported values of Potency for individual entries

| STRUCTURE_SMILES_STRING | TESTED_SYSTEM | Potency |
| --- | --- | --- |
| O=C(Nc1ccc(Cl)cc1)Nc1ccc(Cl)c(Cl)c1 | ATS189 | 3.16 µM (active) |
| Nc1c2ccccc2nc2ccccc12 | ATS189 | 7.08 µM (active) |
| CCCCCCCCCCCCCCCC[N+](C)(C)Cc1ccccc1 | ATS189 | 3.55 µM (active) |
